# Target under test: Recombinant human HSD17B13 enzyme (Homo sapiens (Human), UniProt Q7Z5P4)
# Sequence (Q7Z5P4 20-300): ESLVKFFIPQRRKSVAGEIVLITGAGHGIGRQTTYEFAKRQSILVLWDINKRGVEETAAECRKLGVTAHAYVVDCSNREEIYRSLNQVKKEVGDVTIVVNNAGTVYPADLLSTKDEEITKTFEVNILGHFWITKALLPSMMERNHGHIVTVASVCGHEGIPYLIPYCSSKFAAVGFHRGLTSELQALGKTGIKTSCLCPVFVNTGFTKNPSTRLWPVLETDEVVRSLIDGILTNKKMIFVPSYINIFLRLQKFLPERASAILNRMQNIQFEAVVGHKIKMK
# Experiment description: HSD17b13 NAD(P)H-Glo Biochemical Assay
# Experimental conditions: 50 uM estradiol, 1 mM NAD+; read-out: HSD17β13 IC50
# Method: Recombinant human HSD17B13 enzyme. Substrate: estradiol (Sigma β-Estradiol E8875), 100 mM in DMSO. […] Assay buffer final concentration: 20 mM Tris pH7.4 with 0.002% Tween-20 and 0.02% BSA. […] Enzymatic activity detected by NAD(P)H-Glo™ Detection System (Promega G9062). […] HSD17b13 enzyme was diluted in 1× assay buffer to the desired enzyme concentration based on the specific activity of the enzyme lot. […] After incubating for 1 hour at RT, luminescence was measured.
Entries annotated with measured IC50
Reported endpoint: IC50

> print(dat)
                                    compound    endpoint.value
 1  CS(=O)(=O)N1CCN(c2cc3cn(-c4cc(O)c(F)c(C(F)(F)F)c4)nc3cc2Cl)CC1 [Compound 19.46]          < 100 nM
 2  COc1ccc(-c2ccc3c(cnn3-c3cc(O)c(F)c(C(F)(F)F)c3)c2)cc1Cl [Compound 1.02]    100 to 1000 nM
 3  COC1CCN(c2ncc3c(n2)c(C)nn3-c2cc(C(F)(F)F)c(F)c(O)c2F)CC1 [Compound 19.77]          < 100 nM
 4  Cc1nn(-c2cc(O)c(F)c(F)c2)c2ccc(N3CCN(S(C)(=O)=O)CC3)cc12 [Compound 21.01]    100 to 1000 nM
 5  Cc1nn(-c2cc(C(F)(F)F)c(F)c(O)c2F)c2cnc(N3CCN(S(C)(=O)=O)CC3)cc12 [Compound 19.45]    100 to 1000 nM
 6  Cc1nn(-c2cc(O)c(F)c(C(F)(F)F)c2)c2cnc(N3CCN(S(C)(=O)=O)CC3)cc12 [Compound 21.50]    100 to 1000 nM
 7  O=S(=O)(c1ccccc1)N1CCN(c2ccc3c(cnn3-c3cc(O)c(F)c(F)c3)c2)CC1 [Compound 21.09]    100 to 1000 nM
 8  CS(=O)(=O)N1CCN(c2cc3cnn(-c4cc(F)c(F)c(O)c4F)c3cn2)CC1 [Compound 19.29]    100 to 1000 nM
 9  Cc1nn(-c2cc(C(F)(F)F)c(F)c(O)c2F)c2cnc(N3CCN(c4cnn(C)c4)CC3)cc12 [Compound 19.64]    100 to 1000 nM
10  CS(=O)(=O)N1CCN(c2cc3c(F)nn(-c4cc(O)c(F)c(C(F)(F)F)c4)c3cn2)CC1 [Compound 21.53]          < 100 nM
11  CNC(=O)C1(c2ccc3c(cnn3-c3cc(O)c(F)c(F)c3)c2)CCN(S(C)(=O)=O)CC1 [Compound 29]  1000 to 30000 nM
12  CS(=O)(=O)N1CCN(c2cc3cn(-c4cc(O)c(Cl)c(F)c4)nc3cn2)CC1 [Compound 19.18]    100 to 1000 nM
13  Cc1cc(-n2ncc3cc(N4CCN(S(C)(=O)=O)CC4)ncc32)c(F)c(O)c1F [Compound 19.28]  1000 to 30000 nM
14  CS(=O)(=O)N1CCN(c2cc3cnn(-c4cc(O)c(F)c(F)c4)c3cc2Cl)CC1 [Compound 21.13]    100 to 1000 nM
15  Cc1nn(-c2cc(C(F)(F)F)c(F)c(O)c2F)c2cnc(N(C)C3CCOCC3)nc12 [Compound 19.78]          < 100 nM
